Data provenance is patent US20250250357A1.

molecular target: T1, human MSLN-R2-his protein (human, UniProt Q13421 391-486); test: ELISA, coated antigen; antibody 0.01 nM
T1 construct: also called human MSLN-R2 protein; hMSLN-R2-his; not shown: His tag
T1 sequence (Q13421 other isoform, or with tags, fused parts or gaps): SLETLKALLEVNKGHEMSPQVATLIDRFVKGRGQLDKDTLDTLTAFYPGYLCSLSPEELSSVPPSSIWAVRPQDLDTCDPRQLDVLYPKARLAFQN
Measure: OD450 (OD450)
The figure you give is taken to be in OD450; do not add the unit.

Solved entries:
Binder	Measure	Observed result
S009-F5-9.16 (antibody, human IgG1, kappa, V domains shown, Human-murine chimeric antibody, human IgG1/kappa constant regions) VH: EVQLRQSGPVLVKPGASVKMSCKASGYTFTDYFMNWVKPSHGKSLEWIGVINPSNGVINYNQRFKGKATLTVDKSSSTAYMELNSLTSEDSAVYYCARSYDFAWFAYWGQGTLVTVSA VL: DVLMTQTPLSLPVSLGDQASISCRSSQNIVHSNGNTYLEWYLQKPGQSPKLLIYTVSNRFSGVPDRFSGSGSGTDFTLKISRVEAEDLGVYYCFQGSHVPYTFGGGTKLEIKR	OD450	0.04
Tab106 (YP218, hIgG1) (antibody, V domains shown, Control antibody: YP218 VH and VL recombined into human IgG1 CH and CL expression vectors; also called YP218 human IgG1 antibody) VH: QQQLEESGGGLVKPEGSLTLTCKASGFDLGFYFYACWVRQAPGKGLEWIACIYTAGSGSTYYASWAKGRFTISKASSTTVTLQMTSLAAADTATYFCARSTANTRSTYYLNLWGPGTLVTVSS VL: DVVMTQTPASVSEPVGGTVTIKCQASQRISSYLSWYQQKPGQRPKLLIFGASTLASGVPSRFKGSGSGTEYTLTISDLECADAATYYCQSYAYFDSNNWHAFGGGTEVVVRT	OD450	0.06
S009-F4-94.15 (antibody, human IgG1, kappa, V domains shown, Human-murine chimeric antibody, human IgG1/kappa constant regions) VH: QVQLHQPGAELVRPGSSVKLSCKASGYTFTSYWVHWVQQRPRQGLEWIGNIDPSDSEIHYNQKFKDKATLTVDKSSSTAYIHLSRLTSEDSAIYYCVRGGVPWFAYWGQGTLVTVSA VL: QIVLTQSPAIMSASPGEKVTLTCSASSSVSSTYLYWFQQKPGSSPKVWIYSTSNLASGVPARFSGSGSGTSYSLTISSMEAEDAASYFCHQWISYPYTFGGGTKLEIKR	OD450	0.05
S009-F6-76.1 (antibody, human IgG1, kappa, V domains shown, Human-murine chimeric antibody, human IgG1/kappa constant regions) VH: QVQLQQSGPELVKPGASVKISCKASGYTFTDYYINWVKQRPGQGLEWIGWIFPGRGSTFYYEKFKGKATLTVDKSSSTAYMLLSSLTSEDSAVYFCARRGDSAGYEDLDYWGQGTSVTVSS VL: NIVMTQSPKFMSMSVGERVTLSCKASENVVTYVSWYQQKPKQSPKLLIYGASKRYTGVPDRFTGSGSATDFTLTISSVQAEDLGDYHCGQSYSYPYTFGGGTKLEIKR	OD450	0.04

Now consider the entry below.
## Input Recorded OD450 for S009-F4-127.10 (antibody, human IgG1, kappa, V domains shown, Human-murine chimeric antibody, human IgG1/kappa constant regions) VH: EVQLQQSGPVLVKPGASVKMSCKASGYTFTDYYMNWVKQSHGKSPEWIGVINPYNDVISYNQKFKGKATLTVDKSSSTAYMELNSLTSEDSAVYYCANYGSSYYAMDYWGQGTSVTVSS VL: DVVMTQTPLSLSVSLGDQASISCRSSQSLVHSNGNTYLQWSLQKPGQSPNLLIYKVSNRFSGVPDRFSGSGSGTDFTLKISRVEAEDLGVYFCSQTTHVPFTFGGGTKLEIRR , please?
## Output 0.05
